Measured inhibition at 1 µM, listed per entry.
Target: MAGL (Mus musculus)
Construct: mouse brain membrane fraction or cell lysates for mouse assays; from tissue
Sequence (O35678 1-303): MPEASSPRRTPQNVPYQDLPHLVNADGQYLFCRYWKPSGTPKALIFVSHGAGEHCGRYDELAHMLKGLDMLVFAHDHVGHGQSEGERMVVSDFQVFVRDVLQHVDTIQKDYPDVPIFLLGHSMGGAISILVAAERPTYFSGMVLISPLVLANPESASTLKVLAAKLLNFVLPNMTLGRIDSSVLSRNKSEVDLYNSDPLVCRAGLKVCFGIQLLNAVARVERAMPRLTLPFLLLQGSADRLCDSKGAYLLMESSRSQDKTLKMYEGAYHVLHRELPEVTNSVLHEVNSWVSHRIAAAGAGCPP
Experiment: In vitro competitive activity-based protein profiling, mouse MAGL
Assay type: biochemical
Settings: 1 μM, read-out: MAGL % inh. 1 μM (mouse)

{"compound": "O=C(N1CCC2(CCN(Cc3ccc(Cl)cc3)C2)C1)n1cc(Cl)cn1 (stereo not shown) [Example 115]", "measured-target": "MAGL (Mus musculus)", "inhibition at 1 µM": "≥ 75%"}

// query Which measured inhibition at 1 µM belongs to CN(Cc1ccccc1Cl)[C@H]1C[C@@H]2CN(C(=O)n3cc(C(N)=O)cn3)C[C@@H]2C1 [Example 96] , tested on MAGL (Mus musculus)?
// result ≥ 75%

// query Which measured inhibition at 1 µM belongs to NC(=O)c1cnn(C(=O)N2CCC3(CCN(Cc4ccc(N5CCOCC5)c(C(F)(F)F)c4)C3)C2)c1 (stereo not shown) [Example 206] , tested on MAGL (Mus musculus)?
// result ≥ 75%

// query Which measured inhibition at 1 µM belongs to CC(=O)N1CCN(c2cc(C(C)C)ccc2CN2CC3CN(C(=O)n4cc(Cl)cn4)CC3C2)CC1 (stereo not shown) [Example 109] , tested on MAGL (Mus musculus)?
// result ≥ 75%

// query Which measured inhibition at 1 µM belongs to O=C(O)c1cnn(C(=O)N2CC3CN(Cc4ccc(Cl)cc4)CC3C2)c1 (stereo not shown) [Example 46] , tested on MAGL (Mus musculus)?
// result 0 to 25%

// query Which measured inhibition at 1 µM belongs to CN(Cc1ccccc1Cl)[C@H]1C[C@@H]2CN(C(=O)n3cc(C(=O)N4CCOCC4)cn3)C[C@@H]2C1 [Example 86] , tested on MAGL (Mus musculus)?
// result 50 to 75%

// query Which measured inhibition at 1 µM belongs to CC(=O)N(Cc1ccc(Cl)cc1)[C@H]1C[C@@H]2CN(C(=O)n3cc(Cl)cn3)C[C@@H]2C1 [Example 70] , tested on MAGL (Mus musculus)?
// result ≥ 75%

---

target: MAGL (Mus musculus, UniProt O35678); construct: mouse brain membrane fraction or cell lysates for mouse assays; experiment: In vitro competitive activity-based protein profiling, mouse MAGL
measurement-type: IC50

{"molecule": "O=C(N1CCC2(CCN(Cc3ccc(C(F)(F)F)cc3)C2)C1)n1cc(Cl)cn1 (stereo not shown)", "measured-target": "MAGL (Mus musculus, UniProt O35678)", "measurement-type": "IC50", "reading": "100 to 1000 nM"}
{"molecule": "COc1cccc(CN2CCC3(CCN(C(=O)n4cc(C(F)(F)F)cn4)C3)C2)c1 (stereo not shown)", "measured-target": "MAGL (Mus musculus, UniProt O35678)", "measurement-type": "IC50", "reading": "100 to 1000 nM"}
{"molecule": "NC(=O)c1cnn(C(=O)N2CC3CN(Cc4cc(Cl)cc(C(F)(F)F)c4)CC3C2)c1 (stereo not shown)", "measured-target": "MAGL (Mus musculus, UniProt O35678)", "measurement-type": "IC50", "reading": "≤ 100 nM"}

Next molecule, please.
// query Query (molecule): O=C(N1CC2CN(Cc3ccccc3Cl)CC2C1)n1cc(Cl)cn1 (stereo not shown) ; field requested: IC50
// result 100 to 1000 nM

---

Target: FAAH (Homo sapiens)
Construct: human prefrontal cortex or cell membrane fractions for human assays; from tissue
Sequence (O00519 1-579): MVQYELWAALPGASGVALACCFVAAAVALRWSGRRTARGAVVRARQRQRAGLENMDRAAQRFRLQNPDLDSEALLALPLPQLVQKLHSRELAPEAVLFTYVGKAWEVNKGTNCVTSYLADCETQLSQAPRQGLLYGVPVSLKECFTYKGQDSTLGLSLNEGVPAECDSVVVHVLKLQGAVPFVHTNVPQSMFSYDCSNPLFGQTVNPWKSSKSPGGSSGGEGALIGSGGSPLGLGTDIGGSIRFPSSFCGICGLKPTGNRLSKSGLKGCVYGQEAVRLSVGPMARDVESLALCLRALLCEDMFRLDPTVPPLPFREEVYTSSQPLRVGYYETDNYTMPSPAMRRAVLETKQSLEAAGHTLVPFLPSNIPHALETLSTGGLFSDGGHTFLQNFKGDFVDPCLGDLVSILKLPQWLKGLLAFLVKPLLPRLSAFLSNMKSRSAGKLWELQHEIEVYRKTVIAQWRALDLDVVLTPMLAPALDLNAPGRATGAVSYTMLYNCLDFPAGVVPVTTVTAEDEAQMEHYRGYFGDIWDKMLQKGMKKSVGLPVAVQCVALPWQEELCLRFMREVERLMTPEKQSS
Assay: In vitro competitive activity-based protein profiling, human FAAH
Format: biochemical
Conditions: 1 μM, read-out: FAAH % inh. 1 μM (human)
Measured inhibition at 1 µM, listed per entry.

A selection of reference data follows.
{"compound": "O=C(O)c1cnn(C(=O)N2CC3CN(Cc4ccc(N5CCCC5)cc4C(F)(F)F)CC3C2)c1 (centres unmarked) [Example 197]", "measured-target": "FAAH (Homo sapiens)", "reading": "≥ 75%"}
{"compound": "O=C(O)c1cnn(C(=O)N2CC3CN(Cc4cc(N5CCCC5)cc(C(F)(F)F)c4)CC3C2)c1 (centres unmarked) [Example 198]", "measured-target": "FAAH (Homo sapiens)", "reading": "≥ 75%"}
{"compound": "CN(Cc1ccc(N2CCCC2)cc1C(F)(F)F)[C@@H]1C[C@@H]2CN(C(=O)n3cc(C(N)=O)cn3)C[C@@H]2C1 [Example 220]", "measured-target": "FAAH (Homo sapiens)", "reading": "0 to 25%"}
{"compound": "NC(=O)c1cnn(C(=O)N2CCC3(CCN(Cc4cc(N5CCOCC5)cc(C(F)(F)F)c4)C3)C2)c1 (centres unmarked) [Example 210]", "measured-target": "FAAH (Homo sapiens)", "reading": "≥ 75%"}

Next compound, please.
// query Query (compound): O=C(O)c1cnn(C(=O)N2CC3CN(Cc4cc(Cl)ccc4C(F)(F)F)CC3C2)c1 (centres unmarked) [Example 196] ; field requested: inhibition at 1 µM
// result ≥ 75%

---

Measured inhibition at 1 µM, listed per entry.
Biological target: FAAH (Mus musculus)
Construct: mouse brain membrane fraction or cell lysates for mouse assays; from tissue
Sequence (O08914 1-579): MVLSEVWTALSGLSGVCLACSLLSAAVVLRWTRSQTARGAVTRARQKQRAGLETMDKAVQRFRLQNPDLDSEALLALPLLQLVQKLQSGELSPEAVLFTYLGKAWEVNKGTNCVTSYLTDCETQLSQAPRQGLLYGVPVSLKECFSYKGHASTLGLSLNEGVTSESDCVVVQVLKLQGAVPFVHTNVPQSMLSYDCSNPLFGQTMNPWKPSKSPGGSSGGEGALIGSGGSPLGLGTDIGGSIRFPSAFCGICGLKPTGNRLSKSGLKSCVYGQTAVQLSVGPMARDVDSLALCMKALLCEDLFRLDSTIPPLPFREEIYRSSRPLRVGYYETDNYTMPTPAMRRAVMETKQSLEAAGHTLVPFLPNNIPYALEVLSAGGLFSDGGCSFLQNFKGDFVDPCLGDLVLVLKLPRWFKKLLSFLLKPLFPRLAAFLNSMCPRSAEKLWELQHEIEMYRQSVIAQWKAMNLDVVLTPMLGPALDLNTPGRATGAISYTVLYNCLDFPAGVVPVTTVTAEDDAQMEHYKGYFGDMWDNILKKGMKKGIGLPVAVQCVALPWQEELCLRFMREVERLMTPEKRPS
Assay: In vitro competitive activity-based protein profiling, mouse FAAH
Assay type: biochemical
Details: 1 μM, read-out: FAAH % inh. 1 μM (mouse)

// query Query (compound): CN(Cc1ccccc1Cl)[C@H]1C[C@@H]2CN(C(=O)n3cc(C(=O)N4CCOCC4)cn3)C[C@@H]2C1 [Example 86] ; field requested: inhibition at 1 µM
// result ≥ 75%

// query Query (compound): CN(Cc1cc(N2CCCC2)cc(C(F)(F)F)c1)[C@H]1C[C@@H]2CN(C(=O)n3cc(C(N)=O)cn3)C[C@@H]2C1 [Example 217] ; field requested: inhibition at 1 µM
// result ≥ 75%

// query Query (compound): CN(Cc1cccc(Oc2cccnc2)c1)[C@H]1C[C@@H]2CN(C(=O)n3cc(Cl)cn3)C[C@@H]2C1 [Example 163] ; field requested: inhibition at 1 µM
// result ≥ 75%

// query Query (compound): O=C(N1CC2CN(Cc3ccc(N4CCOCC4)cc3)CC2C1)n1cc(Cl)cn1 (stereo not shown) [Example 125] ; field requested: inhibition at 1 µM
// result ≥ 75%

// query Query (compound): CN(Cc1ccc(-c2cccnn2)cc1C(F)(F)F)[C@@H]1C[C@@H]2CN(C(=O)n3cc(C(N)=O)cn3)C[C@@H]2C1 [Example 191] ; field requested: inhibition at 1 µM
// result ≥ 75%

// query Query (compound): O=C(N1CCC2(CCN(Cc3ccc(CN4CCOCC4)cc3)C2)C1)n1cc(Cl)cn1 (stereo not shown) [Example 129] ; field requested: inhibition at 1 µM
// result 50 to 75%

// query Query (compound): O=C(N1CCC2(CCN(Cc3ccccc3N3CCOCC3)C2)C1)n1cc(C(F)(F)F)cn1 (stereo not shown) [Example 182] ; field requested: inhibition at 1 µM
// result 25 to 50%
